Assay: Single dose 300 mg / 450 mg pharmacokinetic, safety and tolerability study in healthy male and female subjects
Conditions: female, human, plasma, po, 300 mg
Measurement Kind: concentration at 0 h

What value of concentration at 0 h has been reported for the following compound? O=C1NCC2(c3ccc(Cl)c(Cl)c3)CC12 (stereo not shown) [EB-10101] 0 ng/mL

---

Assay: Single rising oral dose (10-150 mg IR) safety, tolerance and pharmacokinetics in healthy male volunteers
Format: in vivo, human
Conditions: male, human, plasma, oral, 150 mg, Median
Measurement Kind: AUC(0-inf) (ng·h/mL)
All answers are understood in ng·h/mL, so give the number only.

// lookup AUC(0-inf) for Clc1ccc([C@]23CNC[C@H]2C3)cc1Cl 8010

---

Assay: 2-week dog toxicity and toxicokinetic study
Format: in vivo
Conditions: female, beagle, in vivo, po, 5 mg/kg/day, females, 5 mg/kg/day, Day 13
Measurement Kind: Cmax (ng/mL)
Write down the numeric answer in ng/mL and omit the unit.

Fill in: Cmax of Clc1ccc([C@]23CNC[C@H]2C3)cc1Cl is ___ 2040

---

Assay: 13-week mouse toxicity and toxicokinetic study
Details: female, Crl:CD-1(ICR) BR, in vivo, po, 30 mg/kg/day, AUC0-24
Measurement Kind: AUC(0-t) (ng·h/mL)
Respond numerically; units are ng·h/mL and should not be typed.

I have this compound here, Clc1ccc([C@]23CNC[C@H]2C3)cc1Cl , and I need its recorded AUC(0-t). 7120

---

Experiment: 12-month dog toxicity and toxicokinetic study
Assay type: in vivo
Conditions: male, beagle, dog, plasma, po, 20 mg/kg/day, males, 20 (15) mg/kg/day, Day 0
Measurement Kind: Cmax

Consider the molecule Clc1ccc([C@]23CNC[C@H]2C3)cc1Cl and give its measured Cmax. 7980 ng/mL

---

Test: Single rising oral dose (10-150 mg IR) safety, tolerance and pharmacokinetics in healthy male volunteers
Assay type: in vivo, human
Details: male, human, plasma, oral, 50 mg, Mean (n = 7)
Measurement Kind: AUC(0-inf) (ng·h/mL)
Entry rule: numbers only, all in ng·h/mL.

Reported AUC(0-inf), compound Clc1ccc([C@]23CNC[C@H]2C3)cc1Cl : ____ 2490

---

Experiment: Multiple-dose safety and PK study 25 mg BID and 50 mg BID for 10 days
Format: in vivo, human
Settings: male, human, in vivo, 25 mg, 25 mg BID; Day 10; healthy male subjects; mean (SD)
Measurement Kind: Cmax (ng/mL)
Respond with the bare value in ng/mL.

Name the recorded Cmax for Clc1ccc([C@]23CNC[C@H]2C3)cc1Cl [amitifadine] . 388

---

Assay: 26-week rat toxicity and toxicokinetic study
Type: in vivo
Conditions: female, Crl:CD(SD)IGS BR, rat, in vivo, po, 25 mg/kg/day, females, 25 mg/kg/day, Day 177; read-out: AUC0-24
Measurement Kind: AUC(0-t)

I have this molecule here, Clc1ccc([C@]23CNC[C@H]2C3)cc1Cl [amitifadine] , and I need its recorded AUC(0-t). 29700 ng·h/mL

---

Test: 12-month dog toxicity and toxicokinetic study
Type: in vivo
Conditions: female, beagle, dog, plasma, po, 2 mg/kg/day, females, 2 mg/kg/day, Day 0; read-out: AUC0-24
Measurement Kind: AUC(0-t)
Could you give the number and then its unit, please?

Any idea what its AUC(0-t) is? The molecule is Clc1ccc([C@]23CNC[C@H]2C3)cc1Cl 1580 ng·h/mL

---

Test: Rabbit developmental toxicity study with toxicokinetics
Details: female, New Zealand white, in vivo, po, pregnant rabbits, 10 mg/kg/day, GD 20
Measurement Kind: Cmax (ng/mL)
Report the value in ng/mL with no unit label.

Please look up its Cmax: Clc1ccc([C@]23CNC[C@H]2C3)cc1Cl [amitifadine] 1090

---

Assay: in vivo
Conditions: male, Crl:CD-1(ICR) BR, mouse, po, 10 mg/kg/day, Cmax
Measurement Kind: Cmax (ng/mL)
Use ng/mL as the unit, but write only the number.

Which measured Cmax value corresponds to Clc1ccc([C@]23CNC[C@H]2C3)cc1Cl [amitifadine] ? 261

---

Assay: Rabbit developmental toxicity study with toxicokinetics
Details: female, New Zealand white, in vivo, po, pregnant rabbits, 10 mg/kg/day, GD 20, read-out: AUC0-24
Measurement Kind: AUC(0-t) (ng·h/mL)
# output: bare number, implied unit ng·h/mL

Sample Clc1ccc([C@]23CNC[C@H]2C3)cc1Cl — what was its AUC(0-t)? 5860

---

Assay: Single dose 300 mg / 450 mg pharmacokinetic, safety and tolerability study in healthy male and female subjects
Conditions: female, human, plasma, po, 300 mg
Measurement Kind: concentration at 0.5 h (ng/mL)
Give the quantity in ng/mL, number only.

I would be grateful if you could share the reported concentration at 0.5 h for O=C1NCC2(c3ccc(Cl)c(Cl)c3)CC12 (stereo not shown) [EB-10101] . 22.8

---

Test: Single dose 300 mg / 450 mg pharmacokinetic, safety and tolerability study in healthy male and female subjects
Details: female, human, plasma, po, 450 mg
Measurement Kind: concentration at 2 h (ng/mL)
Respond numerically; units are ng/mL and should not be typed.

Quick one: concentration at 2 h of O=C1NCC2(c3ccc(Cl)c(Cl)c3)CC12 (stereo not shown) [EB-10101] ? 1030

---

Test: Single dose 300 mg / 450 mg pharmacokinetic, safety and tolerability study in healthy male and female subjects
Details: male, human, plasma, po, 300 mg
Measurement Kind: concentration at 0 h (ng/mL)
Record the value in ng/mL, omitting the unit from your answer.

Name the reported concentration at 0 h value associated with the molecule O=C1NCC2(c3ccc(Cl)c(Cl)c3)CC12 (stereo not shown) 0

---

Assay: 13-week dog toxicity and toxicokinetic study
Type: in vivo
Conditions: male, beagle, dog, in vivo, po, 2 mg/kg/day, males, 2 mg/kg/day, Day 0
Measurement Kind: Tmax (h)
Report the figure in h without appending any unit label.

# query: Tmax of entry Clc1ccc([C@]23CNC[C@H]2C3)cc1Cl 1

---

Assay: 13-week rat toxicity and toxicokinetic study
Format: in vivo
Conditions: female, Crl:CD(SD)IGS BR, rat, in vivo, po, 60 mg/kg/day, females, 60 mg/kg/day, Day 87
Measurement Kind: Tmax (h)
Your answer should be a plain number; it is taken to be in h.

Which Tmax value is on record for Clc1ccc([C@]23CNC[C@H]2C3)cc1Cl ? 2

---

Assay: 13-week dog toxicity and toxicokinetic study
Format: in vivo
Conditions: male, beagle, dog, in vivo, po, 2 mg/kg/day, males, 2 mg/kg/day, Day 86; read-out: AUC0-24
Measurement Kind: AUC(0-t) (ng·h/mL)
The reply should be a number in ng·h/mL, with the unit left off.

What value of measured AUC(0-t) is listed for Clc1ccc([C@]23CNC[C@H]2C3)cc1Cl ? 2280

---

Assay: Single dose 300 mg / 450 mg pharmacokinetic, safety and tolerability study in healthy male and female subjects
Details: male, human, plasma, po, 300 mg
Measurement Kind: concentration at 0.5 h (ng/mL)
Expressed in ng/mL, but write only the number.

Query (compound): O=C1NCC2(c3ccc(Cl)c(Cl)c3)CC12 (stereo not shown) ; field requested: concentration at 0.5 h 62.9

---

Test: Single rising oral dose (10-150 mg IR) safety, tolerance and pharmacokinetics in healthy male volunteers
Assay type: in vivo, human
Conditions: male, human, plasma, oral, 50 mg, Geometric Mean; read-out: MRT0-∞
Measurement Kind: MRT inf (h)
Return type: number; implicit unit h.

Which MRT inf value belongs to Clc1ccc([C@]23CNC[C@H]2C3)cc1Cl [amitifadine] ? 5.23

---

Assay: in vivo
Conditions: male, Crl:CD-1(ICR) BR, mouse, po, 10 mg/kg/day, AUC0-24
Measurement Kind: AUC(0-t) (ng·h/mL)
The reply should contain only the number, in ng·h/mL.

Item Clc1ccc([C@]23CNC[C@H]2C3)cc1Cl has what recorded AUC(0-t)? 1970

---

Assay: 13-week mouse toxicity and toxicokinetic study
Conditions: male, Crl:CD-1(ICR) BR, in vivo, po, 100 mg/kg/day, Cmax
Method: For toxicology assessment ten mice of each gender were placed in each group. Ophthalmic examinations were performed during Weeks −1 and 12.
Measurement Kind: Cmax

Given Clc1ccc([C@]23CNC[C@H]2C3)cc1Cl , state its recorded Cmax. 2850 ng/mL

---

Experiment: Single dose 300 mg / 450 mg pharmacokinetic, safety and tolerability study in healthy male and female subjects
Details: female, human, plasma, po, 300 mg, t½, single oral 300 mg DOV 21,947 HCl IR, N = 5; arithmetic mean
Measurement Kind: half-life (h)
Answer with a number only, understood to be in h.

Clc1ccc([C@]23CNC[C@H]2C3)cc1Cl [amitifadine] ... 4.14

Returns the measured half-life for the input molecule. Input: O=C1NCC2(c3ccc(Cl)c(Cl)c3)CC12 (centres unmarked) [EB-10101] 15.5
